System Name: SARS-CoV-2 M^pro (main protease, 3CL^pro) (Severe acute respiratory syndrome coronavirus 2)
Protocol Summary: BRET-based sensor proteolytic cleavage assay
Measurement Context: read-out: Determined EC50
Text: BRET-based sensor proteolytic cleavage assay on SARS-CoV-2 M^pro (main protease, 3CL^pro)
Quantity Kind: EC50 (µM)
Answer format: numeric, µM implied, no suffix.

Specify measured EC50 for CCCCc1nc(Cl)c(CO)n1Cc1ccc(-c2ccccc2-c2nn[nH]n2)cc1 [LT, Losartan] . 260

The reported numbers originate from paper PMC9775371.
